# System: Plasmodium berghei
# Test name: Screen against P. berghei liver stage (PbLuc), transformed with Luciferase, at 10uM
# Type: functional, HepG2
# Conditions used: tested at 10 uM
Among all 69,000 compounds or so, about 8,600 (12%) showed an effect of 50% or more. The sample holds strong results, similar compounds and a random draw of the others, so the mix is not that of the screen.
// reported INHIBITION per item
State the answer as a number, implicitly in %.

Below, each entry is followed by its recorded INHIBITION result.
Cn1nc(COc2cncnc2)c2c1CCN(Cc1ccccn1)C2 ... 24.9
CN1CC(=O)N(c2cccnc2)CC12CCN(C(=O)c1cccn1C)C2 (centres undefined) ... -46.8
Cc1ccc(C(=O)N2CCC(Oc3ccccc3)CC2)c(=O)[nH]1 ... 29.4

I would be grateful if you could share the reported INHIBITION for "Nc1nc2c(c(NCc3ccncc3)n1)CCCC2" .
-68.2

Repeat with "COc1ccc(C2CCN(CCCC#N)CC2)cc1"
63.5

Note, next up: "COc1ccccc1OC1CCN(C(=O)c2c[nH]c(=O)[nH]c2=O)CC1"
-7.76

Note, next up: "Cc1csc(N2CCCN(C(=O)c3cccs3)CC2)n1"
29.2
